system: B6 mice; assay: Serum (plasma) triglyceride (TG) in high-fat diet mice; type: in vivo; conditions: 2.5 mg/kg, 4 weeks of administration
OUTCOME MEASURE: TG (plasma triglyceride) (mg/dL)
Respond numerically; units are mg/dL and should not be typed.

>  <ENTRY SMILES>
O=c1c(-c2ccc(O)cc2)coc2c([C@@H]3O[C@H](CO)[C@@H](O)[C@H](O)[C@H]3O)c(O)ccc12

>  <TG (plasma triglyceride) (mg/dL)>
166.7

$$$$
>  <ENTRY SMILES>
O=C(CCc1ccc(O)cc1)c1c(O)cc(O)cc1O[C@@H]1O[C@H](CO)[C@@H](O)[C@H](O)[C@H]1O

>  <TG (plasma triglyceride) (mg/dL)>
148.3

$$$$
>  <ENTRY SMILES>
COc1ccc([C@@H]2CC(=O)c3c(O)cc(O)cc3O2)cc1O

>  <TG (plasma triglyceride) (mg/dL)>
190.1

$$$$

Turning now to a further record.
-- ask Using the record for "O=C1C[C@@H](c2ccc(O)c(O)c2)Oc2cc(O)cc(O)c21" , state its measured TG (plasma triglyceride).
-- reply 135.4
